tested on: Schistosoma mansoni schistosomula (NMRI); experiment: phenotypic severity score (0-4); higher = more antischistosomal effect, active = 2 or more; details: 48 h; 10 µM

MOLECULE | STUDY SYSTEM | phenotypic severity score
CC(C)(C)n1nc(-c2ccccc2)c2c(N)ncnc21 | Schistosoma mansoni schistosomula (NMRI) | 0
CC(Oc1ccccc1)C(=O)Nc1nc(-c2ccccn2)cs1 (stereo unspecified) | Schistosoma mansoni schistosomula (NMRI) | 0
Cc1cc(NC(=O)c2ccc(Oc3ccc(Cl)cc3O)o2)no1 | Schistosoma mansoni schistosomula (NMRI) | 0
CC(C)n1nc(-c2cc3c(Cl)cccc3[nH]2)c2c(N)ncnc21 | Schistosoma mansoni schistosomula (NMRI) | 4
CS(=O)(=O)N1CCC(Cn2nc(Cc3cccc4ccccc34)c3c(N)ncnc32)CC1 | Schistosoma mansoni schistosomula (NMRI) | 0
CC(=O)N1CCN(c2ccc(Oc3ccc(Cl)cc3O)cc2)CC1 | Schistosoma mansoni schistosomula (NMRI) | 0

---

Below, each entry is listed alongside its reported phenotypic severity score.
system: Schistosoma mansoni schistosomula (NMRI); test: phenotypic severity score (0-4); higher = more antischistosomal effect, active = 2 or more; conditions: 72 h; 10 µM

MOLECULE | phenotypic severity score
COc1cccc(-c2cc3c(Nc4cccnc4)nccc3[nH]2)c1 | 0
CO[C@@H](C(=O)N1Cc2[nH]nc(NC(=O)c3ccc(N4CCN(C)CC4)cc3)c2C1)c1ccccc1 | 0
CC1CCCN(C(=O)C(C)Nc2cc(Cl)ccc2N2CCOCC2)C1 (stereo not given) | 0
CC(=O)Nc1ccc(NC(=O)c2cc(-c3cc(Cl)ccc3O)[nH]n2)cc1 | 0
N=C(N)Nc1ccc(-c2ccc(-c3ccc(NC(=N)N)cc3Cl)o2)c(Cl)c1 | 0
CS(=O)(=O)c1cccc(-c2cnc3[nH]cc(-c4ccc(CCC(=O)O)cc4)c3c2)c1 | 0
Brc1cncc(-c2cc(NCCCn3ccnc3)nc(-c3ccccc3)n2)c1 | 4
c1ccc(Oc2ccc(-c3cc(N4CCOCC4)[nH]n3)cc2)cc1 | 0
O=C(NCCc1ccccc1)c1cc(-c2cccnc2)cnc1NCC1CC1 | 0
NC(=O)c1cc(Br)ccc1OCCOc1ccccc1 | 2

---

test system: Schistosoma mansoni schistosomula (NMRI); test: phenotypic severity score (0-4); higher = more antischistosomal effect, active = 2 or more; conditions: 24 h; 10 µM
Possible outcomes: active, inactive

COMPOUND | STUDY SYSTEM | GROUP LABEL
COc1cccc(-c2cc3c(Nc4cccnc4)nccc3[nH]2)c1 | Schistosoma mansoni schistosomula (NMRI) | inactive
N#Cc1nc(-c2ccccc2F)oc1NCCc1ccccc1 | Schistosoma mansoni schistosomula (NMRI) | inactive
COc1cccc(OC)c1C(=O)Nc1ccc(Cl)c(-c2nc3ccccc3s2)c1 | Schistosoma mansoni schistosomula (NMRI) | active
CC(C)C(NC(=O)Cc1cccc2ccccc12)C(=O)Nc1cccc(C#N)c1 (stereo unspecified) | Schistosoma mansoni schistosomula (NMRI) | inactive
Cc1ccc2c(c1C)NC(=O)C21NN=C(c2ccccc2)S1 (stereo unspecified) | Schistosoma mansoni schistosomula (NMRI) | active
Cc1ccc2[nH]c(C3CCCNC3)c(-c3ccncc3)c2c1 (stereo unspecified) | Schistosoma mansoni schistosomula (NMRI) | inactive

---

tested on: Schistosoma mansoni schistosomula (Liberian); assay: drug effect (1 - score/DMSO control score) (fraction); higher = more antischistosomal effect, active = 0.5 or more; extreme values may be limits of the assay; conditions: 72 h; 10 µM
Possible outcomes: label 1 for active, label 0 for inactive

COMPOUND | GROUP LABEL
COc1ccc2nc(C)cc(OCC(=O)NCc3ccccc3)c2c1 | label 0
CC[C@H](CO)NCCN[C@H](CC)CO | label 0
CCc1nc2ccccc2n1CC(O)COc1cc(C)ccc1Cl (configuration not stated) | label 0
O=C(Nc1cccnc1)c1c(O)c2cccc3c2n(c1=O)CC3 | label 0
NC(CC(=O)c1ccc(Cl)cc1Cl)C(Cl)(Cl)Cl (configuration not stated) | label 0
Cc1nnc(NCc2cccc(Cl)c2)c2ccccc12 | label 0
Clc1cccc(C(c2ccc(CN3CCNCC3)cc2)n2ccnc2)c1 (configuration not stated) | label 1
COc1ccc(N(CCc2cccc(C)n2)C(C)=O)cc1 | label 0
COc1cccc(OCC(=O)c2ccc(Br)cc2)c1 | label 0
Nc1ncnc2c1c(Cc1cccc3ccccc13)nn2CC1CCNCC1 | label 0
O=C(COc1cccc(F)c1)Nc1nc(-c2ccccn2)cs1 | label 0
O=C(NCc1ccoc1)N1CCN(Cc2ccc3c(c2)OCO3)CC1 | label 0
Cc1nc2ccccn2c1C(=O)NCc1ccc(Cl)cc1 | label 0
C[C@@H]1[C@H](O)[C@@H](C)/C=C/C=C/C=C/C=C/C=C/C=C/C=C/[C@H](O[C@@H]2O[C@H](C)[C@@H](O)[C@H](N)[C@@H]2O)C[C@@H]2O[C@](O)(C[C@@H](O)C[C@@H](O)[C@H](O)CC[C@@H](O)C[C@@H](O)CC(=O)O[C@H]1C)C[C@H](O)[C@H]2C(=O)O | label 0
Nc1nc(N)c2c3c(sc2n1)CN(Cc1ccccc1)CC3 | label 0
COc1ccc(-c2cncc3ccc(C(=O)NCCCn4ccnc4)nc23)cc1 | label 0
CNCCC(Oc1ccc(C(F)(F)F)cc1)c1ccccc1 (configuration not stated) | label 0
CCOc1ccc(-c2nc(CNCCc3ccc(F)cc3)cs2)cc1 | label 1
COc1cc(C2=NCCN2)ccc1-n1cc(-c2cccc(C3=NCCN3)c2)nn1 | label 1
O=C(Nc1nnc(S)s1)c1cc(Br)ccc1Cl | label 0
COc1ccc(C2=NN(C3CCCCCC3)C(=O)C2(C)C)cc1OCc1ccccn1 | label 0
O=C(NC1CC1)c1ccc(N2CCOc3ccc(Cl)cc32)s1 | label 1
